All values here come from the supplement of paper PMC10338343.

Tested on: MIWI (PIWIL1) piRISC loaded with L1MC piRNA (30 nt);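 further: 1 nM active piRISC with 0.1 nM target library at 33 °C single turnover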
experimental-protocol: pre-steady-state target cleavage rate (min^-1); MIWI and MILI are mouse PIWI proteins and EfPiwi is from a freshwater sponge; tags in brackets are library labels; higher = faster piRNA-guided slicing of the target;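 further: 1 nM active piRISC with 0.1 nM target library at 33 °C single turnover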
assay-conditions: guide: L1MC piRNA 5'p-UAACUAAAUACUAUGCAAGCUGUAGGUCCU; auxiliary factor: none (no GTSF1)
Over roughly 8,200 sequences, “pre-steady-state target cleavage rate” has its median near 0.024; the highest 2% begin near 1.3. Only a selection was taken, and the highest values are over-represented in it overall.
value-kind: pre-steady-state target cleavage rate

biosequence=UCGACCUACAGCUUGACAUAGUAUUUAGUUA tested_target="MIWI (PIWIL1) piRISC loaded with L1MC piRNA (30 nt)" obs_value=0.00438
biosequence=UGGACCUACAGCUUACAUAGUAUUUAGUUA tested_target="MIWI (PIWIL1) piRISC loaded with L1MC piRNA (30 nt)" obs_value=0.0508
biosequence=UCCUGGAUGAGCUUGCAUAGUAUUCUAGUUA tested_target="MIWI (PIWIL1) piRISC loaded with L1MC piRNA (30 nt)" obs_value=0.0103
biosequence=UCCUGCUAACAGCUUGCAUAGUAUUUAGUUA tested_target="MIWI (PIWIL1) piRISC loaded with L1MC piRNA (30 nt)" obs_value=0.0487
biosequence=UCCUGGAACAGCUUGCAUAGUAUUUGGUUA tested_target="MIWI (PIWIL1) piRISC loaded with L1MC piRNA (30 nt)" obs_value=0.0538
biosequence=UGGACCUACAGCUUUCAUAGUAUUUAGUUA tested_target="MIWI (PIWIL1) piRISC loaded with L1MC piRNA (30 nt)" obs_value=0.0286
biosequence=UCGACCUACAGCUUACAUAGUAUUUAGUUA tested_target="MIWI (PIWIL1) piRISC loaded with L1MC piRNA (30 nt)" obs_value=0.0382
biosequence=UGGACCUACAGCUUCAUAGUAUUUAGUUA tested_target="MIWI (PIWIL1) piRISC loaded with L1MC piRNA (30 nt)" obs_value=0.0221
biosequence=AGGACCUACAGCGUUGCAUAGUAUUUAGUUA tested_target="MIWI (PIWIL1) piRISC loaded with L1MC piRNA (30 nt)" obs_value=0.0748
biosequence=UGGACCUACAGCGUUGCAUAGUAUUUAGUUA tested_target="MIWI (PIWIL1) piRISC loaded with L1MC piRNA (30 nt)" obs_value=0.0647
biosequence=UCCACCUACAGCGUUGCAUAGUAUUUAGUUA tested_target="MIWI (PIWIL1) piRISC loaded with L1MC piRNA (30 nt)" obs_value=0.0279
biosequence=AGGACCUACAGCUUACAUAGUAUUUAGUUA tested_target="MIWI (PIWIL1) piRISC loaded with L1MC piRNA (30 nt)" obs_value=0.0655
biosequence=UGGACCUACAGGUUGCAUAGUAUAUAGUUA tested_target="MIWI (PIWIL1) piRISC loaded with L1MC piRNA (30 nt)" obs_value=0.0198
